- test-method-notes: Plasma pharmacokinetics of metformin with and without RE
- Type: in vivo, human
- reported-conditions: human, plasma, oral, Metformin AUC (0-tau), geometric mean, Day -1 metformin alone; Metformin + RE 750 mg group
quantity: AUC (ng·h/mL)
Numbers only, in ng·h/mL.

// returns reported AUC for input CN(C)C(=N)N=C(N)N [Metformin, metformin, reference compound]
11300

* * *

- test-method-notes: Plasma pharmacokinetics of remogliflozin etabonate and its metabolites during metformin treatment
- Assay type: in vivo, human
- reported-conditions: human, plasma, oral, 500 mg, Day 13, after RE 500 mg BID + metformin, N = 15; read-out: AUC(0-tau), geometric mean (%CVb)
quantity: AUC (ng·h/mL)
One number for each entry, in ng·h/mL.

// returns reported AUC for input Cc1c(Cc2ccc(OC(C)C)cc2)c(O[C@@H]2O[C@H](CO)[C@@H](O)[C@H](O)[C@H]2O)nn1C(C)C
4930

* * *

- test-method-notes: Plasma pharmacokinetics of remogliflozin etabonate and its metabolites during metformin treatment
- Format: in vivo, human
- reported-conditions: human, plasma, oral, 750 mg, Day 13, after RE 750 mg BID + metformin, N = 16; read-out: AUC(0-tau), geometric mean (%CVb)
quantity: AUC (ng·h/mL)
One number for each entry, in ng·h/mL.

// returns reported AUC for input Cc1c(Cc2ccc(OC(C)C)cc2)c(O[C@@H]2O[C@H](CO)[C@@H](O)[C@H](O)[C@H]2O)nn1C(C)C
7000

* * *

- test-method-notes: Plasma pharmacokinetics of metformin with and without RE
- Format: in vivo, human
- reported-conditions: human, plasma, oral, Metformin AUC (0-tau), geometric mean, Day -1 metformin alone; Metformin + RE 500 mg group
quantity: AUC (ng·h/mL)
Give bare numbers, in ng·h/mL.

// returns reported AUC for input CN(C)C(=N)N=C(N)N [Metformin, metformin, reference compound]
13900

* * *

- test-method-notes: Plasma pharmacokinetics of remogliflozin etabonate and its metabolites during metformin treatment
- Assay type: in vivo, human
- reported-conditions: human, plasma, oral, 750 mg, Day 13, after RE 750 mg BID + metformin, N = 16; read-out: tmax, median (range)
quantity: Tmax

• Cc1c(Cc2ccc(OC(C)C)cc2)c(O[C@@H]2O[C@H](CO)[C@@H](O)[C@H](O)[C@H]2O)nn1C(C)C = 78 min

Shift focus to the following entry.
// returns reported Tmax for input CCOC(=O)OC[C@H]1O[C@@H](Oc2nn(C(C)C)c(C)c2Cc2ccc(OC(C)C)cc2)[C@H](O)[C@@H](O)[C@@H]1O [RE, remogliflozin etabonate]
28.8 min

* * *

- test-method-notes: Plasma pharmacokinetics of remogliflozin etabonate and its metabolites during metformin treatment
- Format: in vivo, human
- reported-conditions: human, plasma, oral, 500 mg, Day 1, RE 500 mg BID + metformin, N = 16; read-out: AUC (0-last), geometric mean (%CVb)
quantity: AUC(0-t) (ng·h/mL)
Answers are plain numbers, in ng·h/mL.

// returns reported AUC(0-t) for input CCOC(=O)OC[C@H]1O[C@@H](Oc2nn(C(C)C)c(C)c2Cc2ccc(OC(C)C)cc2)[C@H](O)[C@@H](O)[C@@H]1O [RE, remogliflozin etabonate]
70.9

* * *

- test-method-notes: Plasma pharmacokinetics of metformin with and without RE
- Type: in vivo, human
- reported-conditions: human, plasma, oral, Metformin Cmax, geometric mean, Day -1 metformin alone; Metformin + RE 750 mg group
quantity: Cmax (ng/mL)
One number for each entry, in ng/mL.

// returns reported Cmax for input CN(C)C(=N)N=C(N)N [Metformin, metformin, reference compound]
1760
